Experimental Target: NEK2 (human)
Experiment: radiometric filter-binding kinase assay
Condition Description: compound 0.1 µM
Quantity: residual activity (%)

NC1(c2ccc(-c3nc4ccn5c(=O)[nH]nc5c4cc3-c3ccccc3)cc2)CCC1    95
Cc1cc(NC(=O)c2cccc(NC(=O)/C=C/CN(C)C)c2)ccc1Nc1nccc(-c2cccnc2)n1    105
O=C(Nc1nc2cc(C(F)(F)F)cc(NC3CC3)n2n1)c1cccnc1    97
COc1ccc2c(c1)c1c3c(c4c5ccccc5n(C)c4c1n2CC(O)CN(C)C)C(=O)NC3=O (stereo not given)    95
Cn1c(=O)c2c(ncn2C)n(C)c1=O    107

====

Experimental Target: IKBKE (human)
Experiment: radiometric filter-binding kinase assay
Condition Description: compound 1.0 µM
Quantity: residual activity (%)

CC(C)(C#N)c1ccc(N2C(=O)OCc3cnc4ccc(-c5cnc6ccccc6c5)cc4c32)cc1    111
c1ccc2c(-c3cnn4cc(-c5ccc(N6CCNCC6)cc5)cnc34)ccnc2c1    89
O=C(N[C@@H](COc1ccc2[nH]c(=O)[nH]c2c1)c1ccccc1)c1cccn(Cc2ccc(F)c(F)c2)c1=O    109
COc1cc(O)c2c(c1)/C=C/C[C@H](O)[C@H](O)C(=O)/C=C\C[C@H](C)OC2=O    92
COc1cc(C(=O)N2CCOCC2)c(F)cc1Nc1ncc(C(F)(F)F)c(NC2CC2)n1    94
Nc1cccc2c1CN(C1CCC(=O)NC1=O)C2=O (stereo unspecified)    119

====

Experimental Target: CHEK2 (human) (UniProt O96017)
Sequence (O96017 whole entry, looked up): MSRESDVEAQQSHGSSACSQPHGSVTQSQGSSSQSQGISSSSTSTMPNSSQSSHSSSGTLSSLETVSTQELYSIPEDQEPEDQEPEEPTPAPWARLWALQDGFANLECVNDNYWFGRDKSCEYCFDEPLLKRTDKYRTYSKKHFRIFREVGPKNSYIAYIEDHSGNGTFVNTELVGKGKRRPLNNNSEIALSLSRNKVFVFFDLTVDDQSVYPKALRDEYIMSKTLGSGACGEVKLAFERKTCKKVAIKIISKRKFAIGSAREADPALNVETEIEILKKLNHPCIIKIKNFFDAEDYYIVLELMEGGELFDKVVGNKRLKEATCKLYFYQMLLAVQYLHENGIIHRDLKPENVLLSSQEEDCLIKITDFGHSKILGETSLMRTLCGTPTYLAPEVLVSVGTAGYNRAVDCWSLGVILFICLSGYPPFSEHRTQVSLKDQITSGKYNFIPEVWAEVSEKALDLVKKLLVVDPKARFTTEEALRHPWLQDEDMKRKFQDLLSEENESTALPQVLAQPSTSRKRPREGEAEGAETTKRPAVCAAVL
Experiment: radiometric filter-binding kinase assay
Condition Description: compound 10.0 µM
Quantity: residual activity (%)

C=CC(=O)N1CCC[C@@H](n2nc(-c3ccc(Oc4ccccc4)cc3)c3c(N)ncnc32)C1    35
Nc1cccc2c1CN(C1CCC(=O)NC1=O)C2=O (stereo not drawn)    93
NS(=O)(=O)OC[C@@H]1C[C@@H](n2ccc3c(N[C@H]4CCc5ccccc54)ncnc32)C[C@@H]1O    67
C[C@H]1CCCC(=O)CCC/C=C/c2cc(O)cc(O)c2C(=O)O1    73
Cc1cc(SCc2sc(-c3ccc(C(F)(F)F)cc3)nc2C)ccc1OCC(=O)O    101

I = O=C1Nc2nc(-c3c(O)cccc3OCC3CC3)cc(C3CCCNC3)c2CO1 (stereo not drawn)
II = CCn1c(-c2nonc2N)nc2cncc(CNC3CCNCC3)c21
Prompt: Among I and II , which shows a numerically higher residual activity result? Provide the label of your selected option as the answer.
Completion: II

I = CN1C(=O)[C@@H](Cc2c[nH]c3ccccc23)NC1=S
II = NC(=O)Nc1ccc2c(c1)/C(=C/c1cc(-c3cccnc3)c[nH]1)C(=O)N2
III = NC(=O)c1ccc(-c2ccc(Oc3cncc4sc(-c5nn[nH]n5)cc34)cc2)cc1
IV = O=C(O)c1ccc(-c2c[nH]c3ncc(-c4ccccc4)cc23)cc1C1CCCC1
Prompt: Please list these molecules in decreasing order of residual activity. Ranked list of labels, please, in the requested order.
Completion: I, III, IV, II

P = COC(=O)/C=C/C(=O)OC
Q = CC1=C(CO)C(=O)O[C@@H]([C@@H](C)[C@H]2CC[C@H]3[C@@H]4C[C@H]5O[C@]56[C@@H](O)C=CC(=O)[C@]6(C)C4CC[C@]23C)C1 (stereo partly drawn)
Prompt: Please tell me which of the two, P or Q , has the higher reported residual activity value. # answer = label of selected item
Completion: P
(P: 90%, Q: 61%)

Reference for the values: the kinase profiling compilation of Christmann-Franck et al. (2016)
